Below: a set of entries, each annotated with reported IC50.
Target Of Assay: human MERTK cytoplasmic domain (Homo sapiens)
Construct: human MERTK cytoplasmic domain (Carna Biosciences 08-108); purchased Carna Biosciences 08-108
Sequence (Q12866 527-999): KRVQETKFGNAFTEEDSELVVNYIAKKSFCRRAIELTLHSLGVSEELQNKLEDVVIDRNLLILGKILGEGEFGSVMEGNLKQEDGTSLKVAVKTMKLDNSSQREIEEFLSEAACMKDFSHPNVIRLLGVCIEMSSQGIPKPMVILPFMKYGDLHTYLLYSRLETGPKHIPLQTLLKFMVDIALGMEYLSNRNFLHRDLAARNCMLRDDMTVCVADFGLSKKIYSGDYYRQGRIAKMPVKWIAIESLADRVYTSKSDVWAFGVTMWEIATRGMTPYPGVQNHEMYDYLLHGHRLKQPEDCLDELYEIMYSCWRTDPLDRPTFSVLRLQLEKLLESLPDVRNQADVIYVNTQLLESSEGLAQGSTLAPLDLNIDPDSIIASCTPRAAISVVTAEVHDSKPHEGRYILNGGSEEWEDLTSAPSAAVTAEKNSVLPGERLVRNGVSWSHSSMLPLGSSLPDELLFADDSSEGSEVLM
Assay Comment: biochemical

| Compound String | Measure Unit | IC50 |
| --- | --- | --- |
| CC(C)n1cc(C(=O)Nc2ccc(Oc3ccnc4cnc(N5CCN(C6COC6)CC5)cc34)cn2)c(=O)n(-c2ccc(F)cc2)c1=O | nM | 5 |
| CN1CCC(Oc2cc3c(Oc4ccc(NC(=O)c5cccn(-c6ccc(F)cc6)c5=O)nc4)ccnc3cn2)CC1 | nM | 6 |
| CC(C)C(=O)N1CCC(c2cc3c(Oc4ccc(NC(=O)c5cccn(-c6ccc(F)cc6)c5=O)nc4)ccnc3cn2)CC1 | nM | 1 |
| Cc1cc(NC(=O)c2cccn(-c3ccccc3)c2=O)ccc1Oc1ccnc2cnc(N3CCNCC3)cc12 | nM | 13 |

Entry source: patent US20230203029A1
